system: HEK293FT dCK*-IKZF1; assay: relative growth recovery (pomalidomide 10 uM = 100%, DMSO = 0%); higher = more growth rescue (IKZF1 fusion degradation); details: compound concentration: 5 uM; AraC concentration: 0.3 uM; overnight pretreatment + 4 days AraC
For each of the compounds below, state its relative growth recovery.
Write the answer as a number in %, unit excluded.

Lookup: relative growth recovery lookup needed for `COc1cccc2c1C(=O)c1c(O)c3c(c(O)c1C2=O)C[C@@](O)(/C(CO)=N/NC(=O)CCCCCN1C(=O)C=CC1=O)C[C@@H]3O[C@H]1C[C@H](N)[C@H](O)[C@H](C)O1` , thanks.
Found: -14

Lookup: // repeat for `Clc1cccc(Cl)c1CSc1nnc(-c2cnccn2)s1` and report
Found: -4.05

Lookup: // repeat for `CCC(=N\O)/C(C)=C/c1ccc(F)cc1` and report
Found: -0.58

Lookup: // repeat for C[C@H](NCc1ccc(OCc2ccccc2F)cc1)C(N)=O [priralfinamide] and report
Found: -2.81
